Tested on: human Factor 7 mRNA
Experiment: Dose-dependent antisense inhibition of human Factor 7 in HepB3 cells, electroporation
Format: cell-based
Conditions: 6.25 μM, approx. 16 hours (Table 16, Example 8 confirmation)
Procedure: The gapmers were also transfected via electroporation and their dose-dependent inhibition of human Factor 7 mRNA was measured. […] After a treatment period of approximately 16 hours, RNA was isolated from the cells and Factor 7 mRNA levels were measured by quantitative real-time PCR. […] Factor 7 mRNA levels were adjusted according to total RNA content, as measured by RIBOGREEN®. […]
Strand notation (5' to 3'): a small letter for the sugar, then the base; units joined by * are phosphorothioate-linked, units joined directly phosphodiester-linked; [ ] holds rarer units or linkages, { } end groups; capitals alone tell only the bases. e = 2'-O-(2-methoxyethyl) (MOE); [5mC] = 5-methylcytosine; d = 2'-deoxy (DNA)
measurement_kind: percent inhibition of Factor 7 mRNA, relative to untreated control cells (%)
The answer is to be given in %; state only the numeric part.

Below, 4 substances whose answers are already recorded.
Asked: Write percent inhibition of Factor 7 mRNA, relative to untreated control cells of 407935 (antisense eA*eT*eG*e[5mC]*eA*dT*dG*dG*dT*dG*dA*dT*dG*d[5mC]*dT*eT*e[5mC]*eT*eG*eA) [compound 407935] ; system used: human Factor 7 mRNA
Given back: 79

Asked: Write percent inhibition of Factor 7 mRNA, relative to untreated control cells of 422296 (antisense e[5mC]*e[5mC]*dG*dA*dG*dT*dT*d[5mC]*dT*dG*d[5mC]*dA*dG*dG*dA*eG*e[5mC]*eG*eG*e[5mC]) [compound 422296] ; system used: human Factor 7 mRNA
Given back: 44

Asked: Write percent inhibition of Factor 7 mRNA, relative to untreated control cells of 422086 (antisense eT*eG*e[5mC]*eA*eT*dG*dG*dT*dG*dA*dT*dG*d[5mC]*dT*dT*e[5mC]*eT*eG*eA*eA) [compound 422086] ; system used: human Factor 7 mRNA
Given back: 48

Asked: Write percent inhibition of Factor 7 mRNA, relative to untreated control cells of 422130 (antisense eG*e[5mC]*e[5mC]*eT*eG*dA*dG*dG*d[5mC]*d[5mC]*dA*dG*d[5mC]*dA*dG*eA*eT*e[5mC]*eA*e[5mC]) [compound 422130] ; system used: human Factor 7 mRNA
Given back: 24

Lab note: next substance to report on.
Asked: Write percent inhibition of Factor 7 mRNA, relative to untreated control cells of 422292 (antisense eG*eT*dT*d[5mC]*dT*dG*d[5mC]*dA*dG*dG*dA*dG*d[5mC]*dG*dG*e[5mC]*e[5mC]*eT*eA*eA) [compound 422292] ; system used: human Factor 7 mRNA
Given back: 40
